tested on: Danio rerio Tg(wt1b:EGFP) embryo, pronephros; assay: glomerular separation, fold change vs DMSO control; higher = glomeruli further apart (abnormal); conditions: 25 µM; exposure: 24-48 hpf
Where a name gives a salt, the structure may show the parent alone.
MEASURED ATTRIBUTE: glomerular separation

# COMPOUND, NUMERIC VALUE
measured = [
    ("CCOC(=O)O[C@]1(C(=O)COC(=O)CC)CC[C@H]2[C@@H]3CCC4=CC(=O)C=C[C@]4(C)[C@H]3[C@@H](O)C[C@@]21C [Prednicarbate]", 1.89),
    ("CC(=O)[C@H]1CC[C@H]2[C@@H]3C[C@H](C)C4=CC(=O)CC[C@]4(C)[C@H]3[C@@H](O)C[C@]12C", 1.02),
    ("CC(C)NNC(=O)c1ccncc1 [Iproniazide phosphate]", 0.735),
    ("CC(C)n1c(/C=C/C(O)CC(O)CC(=O)O)c(-c2ccc(F)cc2)c2ccccc21 (stereo not given) [Fluvastatin sodium salt]", 4.31),
    ("COC(=O)C1=C(C)NC(C)=C(C(=O)OC(C)C)C1c1cccc2nonc12 (stereo not given)", 4.38),
]
